- assay: NCI Yeast Anticancer Drug Screen. Data for the mec2-1 strain (AID 157)
- conditionSet: S. cerevisiae mec2-1 strain, at 50.0 µM, stronger effect = higher value
The panel holds about 79,000 compounds, 15% with a hit somewhere; the sample as a whole holds those more often.
experimentalEndpoint: growth inhibition (%)
Please respond with the number in % and leave the unit unwritten.

> print(dat)
      compound  experimentalendpoint  resultunits  observedresult
1  CCN(CC)CCBr     growth inhibition            %           -12.4

Which growth inhibition is listed for C=Cc1cc(OC)c2c(c1)c(=O)oc1c2cc(OC)c2c(O)ccc(C3OC(C)C(O)C(C)(O)C3O)c21 (stereo not given) ? 91.8

Repeat for the following compound: [CH3][Sn]([Br])([Br])[CH2]CCCBr 93.4

----------
- assay: NCI Yeast Anticancer Drug Screen. Data for the mec2-1 strain (AID 157)
- conditionSet: S. cerevisiae mec2-1 strain, at 1.2 µM, stronger effect = higher value
The panel holds about 79,000 compounds, 15% with a hit somewhere; the sample as a whole holds those more often.
experimentalEndpoint: growth inhibition (%)
Please respond with the number in % and leave the unit unwritten.

> print(dat)
                                   molecule  observedresult
1  NC1=NCC(c2ccc(Cl)cc2)O1 (stereo unspecified)               1
2  CCN(CCCl)c1cc(CN(C)C)cc(NC(=O)c2ccc(C(=O)Nc3cc(CN(C)C)cc(N(CC)CCCl)c3)cc2)c1              -8
3  O=C(c1ccccc1)C1C(c2ccccc2[N+](=O)[O-])N1C1CCCCC1 (stereo unspecified)               4
4  C[N+](C)(C)CC1CCCC(C[N+](C)(C)C)C1=O (stereo unspecified)               1
5  O=C1C=C(CN(CCCl)CCCl)C(=O)C=C1CN(CCCl)CCCl              -5

Which growth inhibition is listed for CC[PH+](CC)CC.CC[PH+](CC)CC.[Au] ? 14

Repeat for the following molecule: O=c1c2ccccc2[se]n1-c1cccnc1 -18

Repeat for the following molecule: CC1CCCN(CCc2ccccc2)CC1 (stereo unspecified) 0

----------
- assay: NCI Yeast Anticancer Drug Screen. Data for the wt1 strain (AID 149);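 also: 0% = growth of vehicle-treated wt1 cultures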
- conditionSet: S. cerevisiae wt1 strain (SPY 50644) growth inhibition; at 3.7 µM; stronger effect = higher value
Compounds without any hit were thinned out: in the full panel of roughly 79,000, 15% have a hit.
experimentalEndpoint: growth inhibition (%)
Please respond with the number in % and leave the unit unwritten.

// known answers, use as guide
> print(dat)
                                   molecule  experimentalendpoint  observedresult
1                 Nc1ccccc1C(=O)OCCc1ccccc1     growth inhibition              -6
2  COC1C(O)C(C)OC(OC2C(Oc3cccc4c(O)c5c(=O)oc6ccc(C)c7c(=O)oc(c34)c5c67)OC(C)C(O)C2O)C1O (stereo not given)     growth inhibition               2
3             C/C(=N\O)c1ccc2ccc3ccccc3c2c1     growth inhibition              -5

Which growth inhibition is listed for CCCCCCCCCCCCCCCCP(=O)(O)OP(=O)(O)OCC1OC(n2ccc(N)nc2=O)C(O)C1O (stereo not given) ? 4

Repeat for the following molecule: O=C(O)CCCc1cc(I)c(N(CCCl)CCCl)c(I)c1 -53

----------
- assay: NCI Yeast Anticancer Drug Screen. Data for the mgt1 strain (AID 153)
- conditionSet: S. cerevisiae mgt1 mutant growth inhibition; at 3.7 µM; stronger effect = higher value
The panel holds about 79,000 compounds, 15% with a hit somewhere; the sample as a whole holds those more often.
Let's look at some compounds and their measured growth inhibition.
Please respond with the number in % and leave the unit unwritten.

// known answers, use as guide
compound	resultUnits	growth inhibition
[N-]=[N+]=C1C(Cl)=C(Cl)C(Cl)=C1Cl	%	-1
N#CC(C#N)=Cc1ccc(C#N)cc1	%	-2
CC(C)CC(NC(=O)C(N)C(C)C)C(=O)NC(CCCCN)C(=O)Nc1ccc(N(CCCl)CCCl)cc1 (stereo not drawn)	%	-16
CSC(=Nc1ccccc1)N(c1ccccc1)c1nc(=[N+](C)C)ss1	%	7
CO[C@H](/C(C)=C/C=C/C(C)=C/c1coc(C)n1)[C@H](C)[C@H]1C[C@@H](O)[C@@]2(C)O[C@H]2/C=C/[C@@H](C)[C@@H]2C[C@@H](CC(=O)O2)C[C@H]2O[C@@H]2C(=O)O1	%	-14

Which growth inhibition is listed for CN(C)CCSC1=Nc2ccc(Cl)cc2C(c2ccccc2Cl)=NC1 ? -1

Repeat for the following compound: CC[C@@]1(O)C[C@H](OC2CC(N(C)C)C(O)C(C)O2)c2c(O)c3c(c(O)c2[C@H]1OC1CC(N(C)C)C(O)C(C)O1)C(=O)c1cccc(O)c1C3=O (stereo partly drawn) 20

Repeat for the following compound: Nc1nc(N)c2c(Cl)c(CNc3ccc(C(=O)NC(CC(=O)O)C(=O)O)cc3)ccc2n1 (stereo not drawn) -3

----------
- assay: NCI Yeast Anticancer Drug Screen. Data for the mlh1 rad18 strain (AID 175)
- conditionSet: S. cerevisiae mlh1 rad18 strain growth inhibition; at 5.0 µM (retest, dose inferred, filed as 0.5)
About 79,000 compounds went through this panel and 15% of them were active in at least one assay; those are over-represented in the sample as a whole. Activity calls are given as the source filed them. Rule as the data show it: active = growth inhibition above about 70%; inactive = the rest.
Please state which outcome applies, choosing from active, inactive

Examples from the recorded data:
compound	qualitativeLabel
Cc1nc2ccccc2cc1C[N+]12CN3CN(CN(C3)C1)C2	inactive
O=C1OC2C(O1)C1(Cl)C(Cl)=C(Cl)C2(Cl)C1(Cl)Cl (centres undefined)	inactive
c1cc[c]([Sn]([c]2ccccc2)([c]2ccccc2)[c]2ccccc2)cc1	inactive
O=C1NC(=S)NC(=O)C1=Cc1ccc([N+](=O)[O-])o1	inactive
CC/C(=C/c1ccc2c(c1)OCO2)[N+](=O)[O-]	inactive

Any idea what this test logged for C/C=C(\C)C(=O)OC1C(C)=C2C(C1OC(=O)CCCCC)C(C)(OC(C)=O)CC(OC(=O)CCC)C1(O)C2OC(=O)C1(C)O (centres undefined) ? inactive

----------
- assay: NCI Yeast Anticancer Drug Screen. Data for the CLN2oe strain (AID 163);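 also: 0% = growth of vehicle-only control cultures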
- conditionSet: S. cerevisiae CLN2oe strain, at 33.0 µM, stronger effect = higher value
About 79,000 compounds went through this panel and 15% of them were active in at least one assay; those are over-represented in the sample as a whole.
experimentalEndpoint: growth inhibition (%)
Please respond with the number in % and leave the unit unwritten.

> print(dat)
                                   compound  observedresult
1            Cc1ccc2c(c1N)C(=O)c1ccccc1C2=O              -4
2  C[C@]12CCc3nonc3C1CC[C@@H]1C2CC[C@]2(C)C(=O)CCC12 (stereo partly specified)              41
3  O=[N+]([O-])c1ccc(-n2nc3ccc4c(no[n+]4[O-])c3[n+]2[O-])c([N+](=O)[O-])c1              -2
4                Nc1ccc(Cl)cc1C(=O)c1ccccc1              20
5   Cc1nc2ccccc2cc1C[N+]12CN3CN(CN(C3)C1)C2               6

Now let's try a different one.
Which growth inhibition is listed for CC12CCC(C1)C(C)(C)C2OC(=O)c1ccccc1N (stereo unspecified) ? 14

----------
- assay: NCI Yeast Anticancer Drug Screen. Data for the sgs1 mgt1 strain (AID 161);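 also: 0% = growth of cultures given vehicle only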
- conditionSet: S. cerevisiae sgs1 mgt1 strain, at 5.0 µM (retest, dose inferred, filed as 0.5), stronger effect = higher value
Compounds without any hit were thinned out: in the full panel of roughly 79,000, 15% have a hit.
Please mark satisfied if the recorded growth inhibition is equal to or greater than 30%, and not satisfied if it falls below.

Examples from the recorded data:
> print(dat)
                                   compound  qualitativelabel
1                            C[CH2][Hg][Cl]         satisfied
2        Cc1c([N+](=O)[O-])oc2ccc3ccccc3c12         satisfied
3  O=S(=O)(F)c1ccc(Cl)cc1C[P+](c1ccccc1)(c1ccccc1)c1ccccc1     not satisfied
4                         CCOC(=O)c1ccccc1N     not satisfied
5       CS/C([S-])=N/N=C/c1ccccn1.[Cl][Pt+]     not satisfied
6  CCn1c(O)c(C(=O)NC(C)c2ccc([N+](=O)[O-])cc2)c(=O)n(CC)c1=S (centres undefined)     not satisfied
7  Cc1ccc(N=P(c2ccccc2)(c2ccccc2)c2ccccc2)cc1.[I][Hg][I]         satisfied
8  FC1(F)C(Cl)=[C]([Hg][C]2=C(Cl)C(F)(F)C(F)(F)C(F)(F)C2(F)F)C(F)(F)C(F)(F)C1(F)F         satisfied

Decide: is the reported value of growth inhibition for CC1(C)CC(=O)C([Se]C2=C(O)CC(C)(C)CC2=O)=C(O)C1 equal to or greater than 30%? satisfied

Repeat for the following compound: Cc1ccc2ccccc2c1NC1=NCCO1 not satisfied

Repeat for the following compound: OC(c1ccc(Br)cc1)C(Cl)(Cl)Cl (centres undefined) not satisfied

All values here come from PubChem BioAssay (NCI).
